System: 13 human tumor cell lines
Test: Average IC50 over the tumor cell lines (MTT)
Assay type: cell-based
Conditions: mean IC50 for each tumor, read-out: AverageIC50
Readings of IC50 for the listed compounds
endpoint label: IC50 (nM)

COc1ccc2cc(C(C)C(=O)NC(Cc3ccc(-c4ccccc4)cc3)C(=O)NC3CC(C)(C)NC(C)(C)C3)ccc2c1 (stereo not shown) [PL-AC-202]
24
CC1(C)CC(NC(=O)C(Cc2ccc(-c3ccccc3)cc2)NC(=O)Cc2ccccc2Nc2c(Cl)cccc2Cl)CC(C)(C)N1 (stereo not shown) [PL-AC-203]
27.7
CC(=O)Oc1ccccc1C(=O)NC(Cc1ccc(-c2ccccc2)cc1)C(=O)NC1CC(C)(C)NC(C)(C)C1 (stereo not shown) [PL-AC-201]
28.2
CC1(C)CC(NC(=O)C(Cc2ccc(-c3ccccc3)cc2)NC(=O)c2cc3ccccc3n2Cc2ccccc2)CC(C)(C)N1 (stereo not shown) [PL-AC-15, reference compound]
32
CC(C(=O)NC(Cc1ccc(-c2ccccc2)cc1)C(=O)NC1CC(C)(C)NC(C)(C)C1)c1cccc(C(=O)c2ccccc2)c1 (stereo not shown) [PL-AC-206]
24.6
COc1ccc2c(c1)c(CC(=O)NC(Cc1ccc(-c3ccccc3)cc1)C(=O)NC1CC(C)(C)NC(C)(C)C1)c(C)n2C(=O)c1ccc(Cl)cc1 (stereo not shown) [PL-AC-205]
25.3
C/C(=C1/c2ccc(F)cc2C(CC(=O)NC(Cc2ccc(-c3ccccc3)cc2)C(=O)NC2CC(C)(C)NC(C)(C)C2)C1C)c1ccc([S+](C)[O-])cc1 (stereo not shown) [PL-AC-204]
28.1
